Test system: NCI-H23
Test Summary: relative viability (nuclei count vs DMSO), 5 days (fraction); higher = more cells survive
Test Context: first compound 0.01581 µM
Collected relative viability values appear next to each entry.
Reply with just the number.

Past entries and their recorded results:
{"columns": ["Compound", "Endpoint", "Value Observed"],
 "data": [
  ["Nc1ccn([C@@H]2O[C@H](CO)[C@@H](O)[C@@H]2O)c(=O)n1 [Cytarabine] + Nc1ncn([C@H]2C[C@H](O)[C@@H](CO)O2)c(=O)n1 [Decitabine] (partner 2 µM)", "relative viability", 0.267],
  ["COc1cc2nccc(Oc3ccc(NC(=O)Nc4cc(C)on4)c(Cl)c3)c2cc1OC [Tivozanib] + CC(C)C[C@H](NC(=O)[C@H](Cc1ccccc1)NC(=O)c1cnccn1)B(O)O [Bortezomib] (partner 0.002 µM)", "relative viability", 0.975]
]}

Pending compound:
Exercise: Return relative viability measured with NCI-H23 given this compound: COc1cc2nccc(Oc3ccc(NC(=O)Nc4cc(C)on4)c(Cl)c3)c2cc1OC [Tivozanib] + COc1cccc2cc(-c3nc([C@H]4CC[C@H](C(=O)O)CC4)n4ncnc(N)c34)[nH]c12 [OSI-027] (partner 0.5 µM)
Key: 0.595

----------
Tested on: HCC-78
Test Summary: relative viability (nuclei count vs DMSO), 5 days (fraction); higher = more cells survive
Test Context: first compound 0.002 µM
Define the label as rule met when relative viability is strictly less than 0.4 and as rule not met in all remaining cases.

// known answers, use as guide
{"columns": ["Compound", "Assigned Class"],
 "data": [
  ["CC(=O)O[C@@]12CO[C@@H]1C[C@H](O)[C@@]1(C)C(=O)[C@H](O)C3=C(C)[C@@H](OC(=O)[C@H](O)[C@@H](NC(=O)OC(C)(C)C)c4ccccc4)C[C@@](O)([C@@H](OC(=O)c4ccccc4)[C@H]21)C3(C)C [Docetaxel] + Cc1nc(NC(=O)N2CCC[C@H]2C(N)=O)sc1-c1ccnc(C(C)(C)C(F)(F)F)c1 [Alpelisib] (partner 2 µM)", "rule met"],
  ["CC(=O)O[C@@]12CO[C@@H]1C[C@H](O)[C@@]1(C)C(=O)[C@H](O)C3=C(C)[C@@H](OC(=O)[C@H](O)[C@@H](NC(=O)OC(C)(C)C)c4ccccc4)C[C@@](O)([C@@H](OC(=O)c4ccccc4)[C@H]21)C3(C)C [Docetaxel] + CC(=O)Nc1cccc(-n2c(=O)n(C3CC3)c(=O)c3c(Nc4ccc(I)cc4F)n(C)c(=O)c(C)c32)c1 [Trametinib] (partner 0.02 µM)", "rule not met"]
]}

Exercise: API: query returns whether the compound falls strictly under 0.4 in relative viability. Query: CC(=O)O[C@@]12CO[C@@H]1C[C@H](O)[C@@]1(C)C(=O)[C@H](O)C3=C(C)[C@@H](OC(=O)[C@H](O)[C@@H](NC(=O)OC(C)(C)C)c4ccccc4)C[C@@](O)([C@@H](OC(=O)c4ccccc4)[C@H]21)C3(C)C [Docetaxel] + Nc1ncn([C@H]2C[C@H](O)[C@@H](CO)O2)c(=O)n1 [Decitabine] (partner 2 µM)
Key: rule not met

----------
System: NCI-H1650
Test Summary: relative viability (nuclei count vs DMSO), 5 days (fraction); higher = more cells survive
Test Context: first compound 0.05 µM
Endpoint: relative viability
Reply with just the number.

Past entries and their recorded results:
{"columns": ["Compound", "Value Observed"],
 "data": [
  ["COc1cc2nccc(Oc3ccc(NC(=O)Nc4cc(C)on4)c(Cl)c3)c2cc1OC [Tivozanib] + CC(=O)Nc1cccc(-n2c(=O)n(C3CC3)c(=O)c3c(Nc4ccc(I)cc4F)n(C)c(=O)c(C)c32)c1 [Trametinib] (partner 0.02 µM)", 0.584],
  ["COc1cc2nccc(Oc3ccc(NC(=O)Nc4cc(C)on4)c(Cl)c3)c2cc1OC [Tivozanib] + Cc1nc(Nc2ncc(C(=O)Nc3c(C)cccc3Cl)s2)cc(N2CCN(CCO)CC2)n1 [Dasatinib] (partner 0.075 µM)", 0.346]
]}

Exercise: Requested field: relative viability. Item: COc1cc2nccc(Oc3ccc(NC(=O)Nc4cc(C)on4)c(Cl)c3)c2cc1OC [Tivozanib] + COc1cccc2cc(-c3nc([C@H]4CC[C@H](C(=O)O)CC4)n4ncnc(N)c34)[nH]c12 [OSI-027] (partner 0.5 µM)
Key: 0.709

Exercise: How about Nc1ccn([C@@H]2O[C@H](CO)[C@@H](O)[C@@H]2O)c(=O)n1 [Cytarabine] + COc1cc2c(Oc3ccc(NC(=O)C4(C(=O)Nc5ccc(F)cc5)CC4)cc3F)ccnc2cc1OCCCN1CCOCC1 [Foretinib] (partner 0.25 µM) ?
Key: 0.73

----------
Tested on: PC-3 [JPC-3]
Test Summary: relative viability (nuclei count vs DMSO), 5 days (fraction); higher = more cells survive
Test Context: first compound 0.5 µM
Collected relative viability values appear next to each entry.
Reply with just the number.

Past entries and their recorded results:
{"columns": ["Molecule", "relative viability"],
 "data": [
  ["COc1cc2nccc(Oc3ccc(NC(=O)Nc4cc(C)on4)c(Cl)c3)c2cc1OC [Tivozanib] + Cc1nc(Nc2ncc(C(=O)Nc3c(C)cccc3Cl)s2)cc(N2CCN(CCO)CC2)n1 [Dasatinib] (partner 0.075 µM)", 0.951],
  ["Nc1ccn([C@@H]2O[C@H](CO)[C@@H](O)[C@@H]2O)c(=O)n1 [Cytarabine] + O=C(c1cc(Cc2n[nH]c(=O)c3ccccc23)ccc1F)N1CCN(C(=O)C2CC2)CC1 [Olaparib] (partner 8 µM)", 0.617],
  ["COc1cc2nccc(Oc3ccc(NC(=O)Nc4cc(C)on4)c(Cl)c3)c2cc1OC [Tivozanib] + C[C@@H](Oc1cc(-c2cnn(C3CCNCC3)c2)cnc1N)c1c(Cl)ccc(F)c1Cl [Crizotinib] (partner 1 µM)", 1.02],
  ["COc1cc2nccc(Oc3ccc(NC(=O)Nc4cc(C)on4)c(Cl)c3)c2cc1OC [Tivozanib] + Nc1ncn([C@H]2C[C@H](O)[C@@H](CO)O2)c(=O)n1 [Decitabine] (partner 2 µM)", 0.831],
  ["COc1cc2nccc(Oc3ccc(NC(=O)Nc4cc(C)on4)c(Cl)c3)c2cc1OC [Tivozanib] + CC(C)C[C@H](NC(=O)[C@H](Cc1ccccc1)NC(=O)c1cnccn1)B(O)O [Bortezomib] (partner 0.002 µM)", 0.794],
  ["COc1cc2nccc(Oc3ccc(NC(=O)Nc4cc(C)on4)c(Cl)c3)c2cc1OC [Tivozanib] + Nc1nc2[nH]cc(CCc3ccc(C(=O)N[C@@H](CCC(=O)O)C(=O)O)cc3)c2c(=O)[nH]1 [Pemetrexed] (partner 0.2 µM)", 0.936],
  ["COc1cc2nccc(Oc3ccc(NC(=O)Nc4cc(C)on4)c(Cl)c3)c2cc1OC [Tivozanib] + COc1cc2c(Oc3ccc(NC(=O)C4(C(=O)Nc5ccc(F)cc5)CC4)cc3F)ccnc2cc1OCCCN1CCOCC1 [Foretinib] (partner 0.25 µM)", 1.01],
  ["COc1cc2nccc(Oc3ccc(NC(=O)Nc4cc(C)on4)c(Cl)c3)c2cc1OC [Tivozanib] + O=C(CCCCCCC(=O)Nc1ccccc1)NO [Vorinostat] (partner 1 µM)", 0.592]
]}

Exercise: Requested field: relative viability. Item: Nc1ccn([C@@H]2O[C@H](CO)[C@@H](O)[C@@H]2O)c(=O)n1 [Cytarabine] + COc1cccc2cc(-c3nc([C@H]4CC[C@H](C(=O)O)CC4)n4ncnc(N)c34)[nH]c12 [OSI-027] (partner 0.5 µM)
Key: 0.454

----------
System: HOP-62
Test Summary: relative viability (nuclei count vs DMSO), 5 days (fraction); higher = more cells survive
Test Context: first compound 0.01581 µM
Endpoint: relative viability

{"columns": ["Molecule", "Tested System", "relative viability"],
 "data": [
  ["COc1cc2nccc(Oc3ccc(NC(=O)Nc4cc(C)on4)c(Cl)c3)c2cc1OC [Tivozanib] + CS(=O)(=O)N1CCN(Cc2cc3nc(-c4cccc5[nH]ncc45)nc(N4CCOCC4)c3s2)CC1 [Pictilisib] (partner 1 µM)", "HOP-62", 0.744]
]}

Exercise: Requested field: relative viability. Item: Nc1ccn([C@@H]2O[C@H](CO)[C@@H](O)[C@@H]2O)c(=O)n1 [Cytarabine] + CS(=O)(=O)N1CCN(Cc2cc3nc(-c4cccc5[nH]ncc45)nc(N4CCOCC4)c3s2)CC1 [Pictilisib] (partner 1 µM)
Key: 0.469

Exercise: How about COc1cc2nccc(Oc3ccc(NC(=O)Nc4cc(C)on4)c(Cl)c3)c2cc1OC [Tivozanib] + O=C(c1cc(Cc2n[nH]c(=O)c3ccccc23)ccc1F)N1CCN(C(=O)C2CC2)CC1 [Olaparib] (partner 8 µM) ?
Key: 0.405

----------
Collected relative viability values appear next to each entry.
Test system: EBC-1
Test Summary: relative viability (nuclei count vs DMSO), 5 days (fraction); higher = more cells survive
Test Context: first compound 0.05 µM
Reply with just the number.

Past entries and their recorded results:
{"columns": ["Molecule", "relative viability"],
 "data": [
  ["Nc1ccn([C@@H]2O[C@H](CO)[C@@H](O)[C@@H]2O)c(=O)n1 [Cytarabine] + CC1(C)CCC(c2ccc(Cl)cc2)=C(CN2CCN(c3ccc(C(=O)NS(=O)(=O)c4ccc(N[C@H](CCN5CCOCC5)CSc5ccccc5)c(S(=O)(=O)C(F)(F)F)c4)cc3)CC2)C1 [Navitoclax] (partner 0.5 µM)", 0.233],
  ["Nc1ccn([C@@H]2O[C@H](CO)[C@@H](O)[C@@H]2O)c(=O)n1 [Cytarabine] + CC(C)C[C@H](NC(=O)[C@H](Cc1ccccc1)NC(=O)c1cnccn1)B(O)O [Bortezomib] (partner 0.002 µM)", 0.515]
]}

Pending molecule:
Exercise: Return relative viability measured with EBC-1 given this molecule: COc1cc2nccc(Oc3ccc(NC(=O)Nc4cc(C)on4)c(Cl)c3)c2cc1OC [Tivozanib] + CS(=O)(=O)CCNCc1ccc(-c2ccc3ncnc(Nc4ccc(OCc5cccc(F)c5)c(Cl)c4)c3c2)o1 [Lapatinib] (partner 2 µM)
Key: 0.172

Provenance of the data: the supplement of paper PMC10307832
